The measurements presented in this section are drawn from the supplement of paper PMC8728848.

- assayed.target: Gal(b1-3)Gal(b1-4)GlcNAc(b1-2)Man(a1-3)[Gal(b1-3)Gal(b1-4)GlcNAc(b1-2)Man(a1-6)]Man(b1-4)GlcNAc(b1-4)GlcNAc
- test.name: glycan array binding signal (z-score within array); higher = stronger binding
- particulars: glycan notation: IUPAC condensed, linker removed
The full list was thinned out, with the strongest signals kept by preference.
Record t whenever glycan array binding signal (z-score) is at 4 or higher; record f when lower.

Use these answered entries as a reference point.
MVL (Microcystis viridis), Q9RHG4 (protein) MASYKVNIPAGPLWSNAEAQQVGPKIAAAHQGNFTGQWTTVVESAMSVVEVELQVENTGIHEFKTDVLAGPLWSNDEAQKLGPQIAASYGAEFTGQWRTIVEGVMSVIQIKYTF	f
Gal 3 (Homo sapiens), P17931 (protein) MADNFSLHDALSGSGNPNPQGWPGAWGNQPAGAGGYPGASYPGAYPGQAPPGAYPGQAPPGAYHGAPGAYPGAPAPGVYPGPPSGPGAYPSSGQPSAPGAYPATGPYGAPAGPLIVPYNLPLPGGVVPRMLITILGTVKPNANILDFQRGNDVAFHFNPRFNENNRRVIVCNTKLDNNWGREERQSVFPFESGKPFKIQVLVEPDHFKVAVNDAHLLQYNHRVKKLNEISKLGISGDIDLTSASYTMI	t
Tap1 (Sordaria macrospora), Q50IV4 (protein) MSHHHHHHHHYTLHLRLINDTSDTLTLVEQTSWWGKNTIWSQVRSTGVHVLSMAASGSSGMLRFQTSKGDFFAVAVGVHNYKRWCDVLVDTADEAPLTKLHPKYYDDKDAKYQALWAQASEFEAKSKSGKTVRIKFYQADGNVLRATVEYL	f
AAL (Agrocybe aegerita), Q6WY08 (protein) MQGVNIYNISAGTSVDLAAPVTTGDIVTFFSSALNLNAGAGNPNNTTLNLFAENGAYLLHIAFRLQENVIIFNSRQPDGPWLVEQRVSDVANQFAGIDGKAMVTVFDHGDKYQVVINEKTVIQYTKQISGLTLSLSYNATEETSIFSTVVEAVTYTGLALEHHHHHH	t

IN: Please tell me: is the binder Gal 1 (Canis lupus) (protein) MACGLVASNLSLKPGQCLRVQCEVVPEAKSFVLNLGKDGDNLCLHFNPRFEAHGDVNTIVCNSKDGGAWGEELRESAFPFQPGTVTEVCISFDQADLTIKLPDGYTFKFPNRLNLEAISYLAADGDMKIKCLAFD at or over 4 in terms of glycan array binding signal (z-score)?
OUT: t

IN: Please tell me: is the binder CLEC5A (Homo sapiens), Q9NY25 (protein) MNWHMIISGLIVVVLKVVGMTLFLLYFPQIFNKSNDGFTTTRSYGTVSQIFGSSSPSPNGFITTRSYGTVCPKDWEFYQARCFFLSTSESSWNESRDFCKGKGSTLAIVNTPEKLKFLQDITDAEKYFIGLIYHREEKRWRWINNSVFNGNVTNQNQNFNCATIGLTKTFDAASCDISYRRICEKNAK at or over 4 in terms of glycan array binding signal (z-score)?
OUT: f
